Notes on pKi obtained with HCV NS3-NS4A protease (tNS3 with KK4A) (Hepatitis C virus genotype 1a, UniProt P27958).
Sequence (P27958 1027-1208): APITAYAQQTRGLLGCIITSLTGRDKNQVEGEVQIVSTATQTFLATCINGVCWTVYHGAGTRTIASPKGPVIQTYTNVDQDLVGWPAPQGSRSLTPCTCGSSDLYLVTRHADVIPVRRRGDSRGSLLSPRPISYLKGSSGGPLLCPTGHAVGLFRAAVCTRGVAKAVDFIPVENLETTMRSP
Sequence (P27958 1658-1711): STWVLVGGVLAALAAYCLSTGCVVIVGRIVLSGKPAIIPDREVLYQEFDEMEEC
pKi: −log10 of the molar value.

>>> experimental_result("CCC[C@H](NC(=O)[C@@H]1C[C@@H]2CCCC[C@@H]2N1C(=O)[C@@H](NC(=O)[C@@H](NC(=O)c1cnccn1)C1CCCCC1)C(C)(C)C)C(=O)C(=O)NN(Cc1ccccc1)Cc1ccccc1")
"< 5.52"
>>> experimental_result("CCC[C@H](NC(=O)[C@@H]1C[C@@H]2CCCC[C@@H]2N1C(=O)[C@@H](NC(=O)[C@@H](NC(=O)c1cnccn1)C1CCCCC1)C(C)(C)C)C(=O)C(=O)NOc1ccccc1")
"5.52 to 5.82"

Which pKi is reported with HCV NS3-NS4A protease (tNS3 with KK4A) (Hepatitis C virus genotype 1a, UniProt P27958) for this entry: CCC[C@H](NC(=O)[C@@H]1C[C@@H]2CCCC[C@@H]2N1C(=O)[C@@H](NC(=O)[C@@H](NC(=O)c1cnccn1)C1CCCCC1)C(C)(C)C)C(=O)C(=O)NOCC(C)C ?
> 5.82

So what pKi did C=CCONC(=O)C(=O)[C@H](CCC)NC(=O)[C@@H]1C[C@@H]2CCCC[C@@H]2N1C(=O)[C@@H](NC(=O)[C@@H](NC(=O)c1cnccn1)C1CCCCC1)C(C)(C)C get with HCV NS3-NS4A protease (tNS3 with KK4A) (Hepatitis C virus genotype 1a, UniProt P27958)?
< 5.52

Which pKi is reported with HCV NS3-NS4A protease (tNS3 with KK4A) (Hepatitis C virus genotype 1a, UniProt P27958) for this entry: CCC[C@H](NC(=O)[C@@H]1C[C@@H]2CCCC[C@@H]2N1C(=O)[C@@H](NC(=O)[C@@H](NC(=O)c1cnccn1)C1CCCCC1)C(C)(C)C)C(=O)C(=O)NN(C)c1ccccc1 ?
> 5.82

Please state recorded pKi (tested on HCV NS3-NS4A protease (tNS3 with KK4A) (Hepatitis C virus genotype 1a, UniProt P27958)) of CCC[C@H](NC(=O)[C@@H]1C[C@@H]2CCCC[C@@H]2N1C(=O)[C@@H](NC(=O)[C@@H](NC(=O)c1cnccn1)C1CCCCC1)C(C)(C)C)C(=O)C(=O)NN1CCOCC1
< 5.52

# query: pKi | item CCC[C@H](NC(=O)[C@@H]1C[C@@H]2CCCC[C@@H]2N1C(=O)[C@@H](NC(=O)[C@@H](NC(=O)c1cnccn1)C1CCCCC1)C(C)(C)C)C(=O)C(=O)NOC(C)(C)C | system: HCV NS3-NS4A protease (tNS3 with KK4A) (Hepatitis C virus genotype 1a, UniProt P27958)
> 5.82

Provide the documented pKi with HCV NS3-NS4A protease (tNS3 with KK4A) (Hepatitis C virus genotype 1a, UniProt P27958) as the system for CCC[C@H](NC(=O)[C@@H]1C[C@@H]2CCCC[C@@H]2N1C(=O)[C@@H](NC(=O)[C@@H](NC(=O)c1cnccn1)C1CCCCC1)C(C)(C)C)C(=O)C(=O)NOCc1ccccc1
5.52 to 5.82
